The origin of these recorded values is PubChem BioAssay (NCI).

tested on: RPMI-8226 leukemia; experiment: NCI tumour cell line growth inhibition, 48 h
Each entry below lists one item and its recorded TGI value.
Readout name: TGI

compound=CCOC(=O)C(=Cn1c(=S)[nH]c2ccc([N+](=O)[O-])cc21)C(=O)OCC test_value="> 100 µM"
compound="COc1ccc(C2c3cc4c(cc3OC(N3CCCCC3)C2C)OCO4)cc1 (stereo not given)" test_value="> 100 µM"
compound="NC(=O)NCCCC(NC(=O)OCCCCCn1ccc(=O)[nH]c1=O)C(=O)O (stereo not given)" test_value="> 100 µM"
compound=Nc1c(S(=O)(=O)O)cc(Nc2cccc(S(=O)(=O)/C=C/S(=O)(=O)O)c2)c2c1C(=O)c1ccccc1C2=O test_value="> 100 µM"
compound=Oc1ccc(CN(Cc2ccc(C(F)(F)F)cc2)Cc2ccc(O)c3ncccc23)c2cccnc12 test_value="> 100 µM"
compound=CN(C)CCn1c(=O)c2ccc3c4c(nn3CCN(C)C)c3ccccc3n(c1=O)c24 test_value="4.07 µM"
compound=CN(CCN(C)C(=O)CCOS(C)(=O)=O)C(=O)CCOS(C)(=O)=O test_value="> 100 µM"
compound=COc1ccc(/C=N/n2c(Cc3ccc(Cl)cc3)n[nH]c2=O)c(OC)c1 test_value="> 100 µM"
compound=Oc1cc(Cl)ccc1Cc1ccc(Cl)cc1O test_value="> 100 µM"
compound=Cc1cc(C)c2c(N)c3cccc(C)c3nc2n1 test_value="6.78 µM"

* * *

tested on: SW-620 colon; assay: NCI tumour cell line growth inhibition, 48 h; in the data active = GI50 below about 0.43 µM; inactive = the rest
Outcome codes: active, inactive

compound=COc1ccc(-c2cc(-c3nnc(SCC(=O)Nc4ccc(C(C)=O)cc4)o3)c3ccccc3n2)cc1 class_assignment=inactive
compound="C=C1C(=O)O[C@H]2C[C@@H]1CCC1(C)OC1CC/C(C)=C/CC[C@H]2C (some centres undefined)" class_assignment=inactive
compound=COc1cc2c(cc1OC)-c1c(c3ccc([N+](=O)[O-])cc3c(=O)n1CCCN)C2=O class_assignment=inactive
compound=CCC[CH2][Sn]1([CH2]CCC)[O]C(=O)CN=Cc2ccccc2[O]1 class_assignment=active
compound=Cc1ccc(/C(=C/C=C(C#N)C#N)Sc2ccccn2)cc1 class_assignment=inactive
compound=O=C(/C=C\c1ccc2ccccc2n1)c1cc(Cl)ccc1O class_assignment=inactive
compound=COc1cc2ncn(-c3cc(OCc4ccccc4S(C)(=O)=O)c(C#N)s3)c2cc1OC class_assignment=inactive
compound=Oc1cc(Cl)ccc1Cc1ccc(Cl)cc1O class_assignment=inactive
compound=C=C(C)[C@@H]1CC[C@]2(C(=O)NCCNCCNCCN)CC[C@]3(C)[C@H](CC[C@@H]4[C@@]5(C)CCC(=O)C(C)(C)[C@@H]5CC[C@]43C)[C@@H]12 class_assignment=inactive
compound=NC(N)=N/N=C/c1c(-c2ccc(Cl)c([N+](=O)[O-])c2)nc2ccccn12 class_assignment=inactive
compound=COC(=O)[C@@H]1CCCN1C(=O)[C@H]1CCCN1C(=O)[C@@H](Cc1c[nH]c2ccccc12)NC(=S)Nc1cc(C(F)(F)F)cc(C(F)(F)F)c1 class_assignment=inactive
compound="CNCCOC(=O)/C=C1/CCC2C(C(O)CC3C(C)(C(=O)OC)CCCC23C)C1C (centres undefined)" class_assignment=active
compound=CO/N=C(/COc1c(-c2ccccc2)oc2ccccc2c1=O)c1ccc(F)cc1 class_assignment=inactive
compound=O=C(Nc1cccc(-n2ccc3c(NC(=O)c4ccccc4)nccc32)c1)c1cc(N2CCOCC2)cc(C(F)(F)F)c1 class_assignment=active
compound="Cc1ccccc1C(C(=O)NC1CCCCC1)N(C(=O)Cn1ccnc1C)c1cccc(F)c1 (centres undefined)" class_assignment=inactive
compound=Oc1ccc(CN(Cc2ccc(C(F)(F)F)cc2)Cc2ccc(O)c3ncccc23)c2cccnc12 class_assignment=active
compound=COc1ccc2c(c1)C(=O)c1c-2n(CCCN2CCOCC2)c(=O)c2cc([N+](=O)[O-])ccc12 class_assignment=active
compound=COc1ccc(C2=C(c3cc(OC)c(OC)c(OC)c3)C(=O)OC2)cc1OC class_assignment=active
compound="O=C1OCC2=C1C(c1cccc(C(F)(F)F)c1)c1cc3c(cc1N2CCO)CCC3 (centres undefined)" class_assignment=active

* * *

test system: SF-295 CNS; assay: NCI tumour cell line growth inhibition, 48 h; in the data active = GI50 below about 0.43 µM; inactive = the rest
Outcome codes: 1.0 = active, 0.0 = inactive

molecule=COc1cc2c3c(n(C)c(=O)c2cc1OC)-c1cc2c(cc1/C3=C/[C@H](N)CCCCN)OCO2 class_assignment=1.0
molecule="Cc1ccc2[nH]c(C(=O)NN3C(=O)C(C)SC34CCCCC4C)c(-c3ccccc3)c2c1 (stereo not given)" class_assignment=0.0
molecule=CCCCCCN1CCN(Cc2ccc(N(CC)CC)cc2)C(=O)C1=O class_assignment=0.0
molecule=COc1cc2ncn(-c3cc(OCc4ccccc4S(C)(=O)=O)c(C#N)s3)c2cc1OC class_assignment=0.0
molecule=CCN1CCC(CC(=O)Nc2n[nH]c3nc(-c4cccs4)c(Br)cc23)CC1 class_assignment=0.0
molecule=NC(N)=N/N=C/c1c(-c2ccc(Cl)c([N+](=O)[O-])c2)nc2ccccn12 class_assignment=0.0
molecule=COc1cc2c3c(n(CCCNCCNCCCN)c(=O)c2cc1OC)-c1cc2c(cc1C3=O)OCO2 class_assignment=0.0
molecule=COc1ccc2[nH]cc(-c3nc(-c4c[nH]c5ccncc45)cs3)c2c1 class_assignment=0.0
molecule=Cc1ccc(C[P+](c2ccccc2)(c2ccccc2)c2ccccc2)cc1 class_assignment=0.0
molecule="CC1(C)Cc2c(Br)c(Br)c(Br)c(OCC(O)CN3CCOCC3)c2O1 (stereo not given)" class_assignment=0.0

* * *

test system: SK-MEL-28 melanoma; assay: NCI tumour cell line growth inhibition, 48 h
Readout name: TGI

molecule=COc1ccc2c(c1)-c1nn(CCN(C)C)c3ccc(C(=O)NCCCN(C)CCCNC(=O)c4ccc5c6c(nn5CCN(C)C)-c5cc(OC)ccc5Nc46)c(c13)N2 test_value="0.48 µM"
molecule=COC(=O)CCN(CCC(=O)OC)C1CC1 test_value="> 100 µM"
molecule="NC(=O)NCCSC1CCCCC1O (stereo not given)" test_value="> 100 µM"
molecule="CCOC(=O)C(NCc1cccc(C(F)(F)F)c1)(NC(=O)c1ccccc1)C(F)(F)F (stereo not given)" test_value="63.6 µM"
molecule=Nc1c(S(=O)(=O)O)cc(Nc2cccc(S(=O)(=O)/C=C/S(=O)(=O)O)c2)c2c1C(=O)c1ccccc1C2=O test_value="> 100 µM"
molecule=O=[N+]([O-])c1ccc(N=Nc2c(O)[nH]c3ccccc23)cc1 test_value="> 100 µM"
molecule=Cc1cc([N+](=O)[O-])ccc1N=NC(=O)NNc1ccc([N+](=O)[O-])cc1C test_value="29.9 µM"
molecule="CC1CCC2(CC1)N=C1CCC(C)CC1C1(CCC(C)CC1)N2 (stereo not given)" test_value="> 100 µM"
molecule=O=C(O)/C=C/C(=O)O test_value="> 100 µM"
molecule="COc1ccc(C(O)/C(=C/n2ccnc2)c2ccccc2)cc1OC (stereo not given)" test_value="> 100 µM"

* * *

system: BT-549 breast; assay: NCI tumour cell line growth inhibition, 48 h
Everything with TGI lower than 20 µM is Not satisfied; everything else, including exactly 20 µM, is Satisfied.

compound="COc1cc(C2S/C(=C/c3ccccc3)C(=O)N2c2cccc([N+](=O)[O-])c2)cc(OC)c1OC (stereo not drawn)" class_assignment=Satisfied
compound=CN1CCC(n2[nH]c(-c3ccccc3)c(Cc3ccccc3)c2=O)CC1 class_assignment=Satisfied
compound=N=C(N)c1ccc(-c2ccc(-c3ccc(F)cc3)o2)o1 class_assignment="Not satisfied"
compound="CC(C)C1=CC23CCC4C(C)(C(=O)O)CCCC4(C)C2CC1C(C(=O)O)C3C(=O)O (stereo not drawn)" class_assignment=Satisfied
compound=Cc1cc([N+](=O)[O-])ccc1N=NC(=O)NNc1ccc([N+](=O)[O-])cc1C class_assignment=Satisfied
compound=C/C(N=Nc1nc2ccccc2o1)=C1/C=CC=CN1O class_assignment=Satisfied
compound=O=[N+]([O-])c1cccc(-c2cc(-c3cc(Br)ccc3O)[nH]n2)c1 class_assignment="Not satisfied"
compound=CO/C(=N\N=C\c1cccc(C(F)(F)F)c1)c1ccncc1 class_assignment=Satisfied
compound=Nc1ccc(-n2c(=O)oc3ccc(Cl)cc3c2=O)c(Cl)c1 class_assignment="Not satisfied"
compound=O=C1O[C@]2(c3ccccc3)C(c3ccccc3)=C[C@]2(C(=O)c2ccccc2)C1=O class_assignment=Satisfied
compound=O=C(O)C1SCCS1 class_assignment=Satisfied
compound=COc1ccc(C2=CN3CCC[C@H]3C=C2c2cc(O)c(OC)c(OC)c2)cc1OC class_assignment="Not satisfied"
compound=CC[C@@]1(O)C(=O)OCc2c1cc1n(c2=O)Cc2cc3c(NC(=O)CN)cccc3nc2-1 class_assignment=Satisfied
compound="O=C(OCc1ccccc1)N1c2cc([N+](=O)[O-])ccc2C(=O)N2CCC[C@H]2C1O (stereo partly drawn)" class_assignment=Satisfied
compound=Cc1n(CC(=O)c2ccccc2)nc2sc(N)n[n+]12 class_assignment=Satisfied
compound="CC1CCC2(CC1)N=C1CCC(C)CC1C1(CCC(C)CC1)N2 (stereo not drawn)" class_assignment=Satisfied
compound="NC(=O)NCCSC1CCCCC1O (stereo not drawn)" class_assignment=Satisfied
compound=O=C(/C=C/c1ccccc1O)/C=C/c1ccccc1O class_assignment="Not satisfied"
compound="Cc1ccc2[nH]c(C(=O)NN3C(=O)C(C)SC34CCCCC4C)c(-c3ccccc3)c2c1 (stereo not drawn)" class_assignment=Satisfied
compound="C=C1C(=O)O[C@H]2C[C@@H]1CCC1(C)OC1CC/C(C)=C/CC[C@H]2C (stereo partly drawn)" class_assignment=Satisfied
compound="O=C(C#Cc1cn(C2CC(O)C(CO)O2)c(=O)[nH]c1=O)c1ccccc1 (stereo not drawn)" class_assignment=Satisfied
compound=CC(=O)NC1=CC(=O)c2cc(C)cc(O)c2C1=O class_assignment="Not satisfied"
compound=O=C1C=CC(=O)c2c1ncc1c2nc2sccn21 class_assignment=Satisfied
compound=Cc1ccc(Oc2nc3ccccc3cc2-c2nnc(Cn3c(COc4ccccc4)nc4ccccc43)o2)cc1 class_assignment="Not satisfied"
compound="COc1ccc(C2(C3c4cc(OC)c(OC)cc4CCN3C)SCCCS2)cc1O (stereo not drawn)" class_assignment=Satisfied
compound=Cc1ccc(/C(=C/C=C(C#N)C#N)Sc2ccccn2)cc1 class_assignment="Not satisfied"
compound=Cc1ccc(F)cc1NC(=O)c1cc(Cl)ccc1Nc1ccccc1 class_assignment=Satisfied
compound="CCOc1cc(C2SCC(=O)N2c2nc3cc4sc(N5C(=O)CSC5c5ccc(O)c(OCC)c5)nc4cc3s2)ccc1O (stereo not drawn)" class_assignment=Satisfied
compound="COc1ccc(C(=O)CC(c2ccc(OC)c(OC)c2)c2c(O)c3ccccc3oc2=O)cc1OC (stereo not drawn)" class_assignment=Satisfied
compound="CCOC(=O)C(C)c1nc2cc(N3CCN(C)CC3)c(F)cc2[nH]c1=O (stereo not drawn)" class_assignment=Satisfied
compound="CCC(C)C1(O)OC2CC3(C)OC(=CC3=O)/C(C)=C\\C3OC(=O)C1(C)C32 (stereo not drawn)" class_assignment="Not satisfied"
compound=COc1ccc2c(c1)-c1nn(CCN(C)C)c3ccc(C(=O)NCCCN(C)CCCNC(=O)c4ccc5c6c(nn5CCN(C)C)-c5cc(OC)ccc5Nc46)c(c13)N2 class_assignment="Not satisfied"
compound="CCCCCCCCC/C=C1\\CC(CO)(COC(=O)c2ccccc2)OC1=O (stereo not drawn)" class_assignment=Satisfied
compound=Cc1cc(N=C2C=C(Nc3cc(C)on3)C(=O)c3ccccc32)no1 class_assignment=Satisfied
compound="O=C(NC1(C(=O)O)CC1c1ccccc1)c1ccccc1 (stereo not drawn)" class_assignment=Satisfied
compound=Oc1ccc(CN(Cc2ccc(C(F)(F)F)cc2)Cc2ccc(O)c3ncccc23)c2cccnc12 class_assignment=Satisfied
compound=COc1ccc2[nH]cc(-c3nc(-c4c[nH]c5ccncc45)cs3)c2c1 class_assignment=Satisfied
compound=O=C(c1ccccc1)N1C(=S)N(c2ccc([N+](=O)[O-])cc2)C(=Nc2ccccc2)C1=Nc1ccccc1 class_assignment=Satisfied
compound=Cc1cc2nc3c4cccc(O)c4n(CCN(C)C)c3nc2cc1C class_assignment=Satisfied
compound=O=[N+]([O-])c1ccc(Cl)cc1C=NC12CC3CC(CC(C3)C1)C2 class_assignment=Satisfied
compound=CC[C@@H]1CC[C@@H]2[C@H](CC[C@]3(C)[C@@H](OS(=O)(=O)c4ccc(C)cc4)CC[C@@H]23)[C@H]1CO class_assignment=Satisfied
compound=O=[N+]([O-])/C=C/c1ccc([N+](=O)[O-])cc1 class_assignment="Not satisfied"
compound=COc1cc2c(cc1Cl)n([O-])c(C#N)c(N1CCN(c3ccc([N+](=O)[O-])cc3)CC1)[n+]2=O class_assignment=Satisfied
